Provide the reported TGI of each item.
Test system: MDA-MB-231 breast
METHOD SUMMARY: NCI tumour cell line growth inhibition, 48 h

The value of TGI recorded for COc1cc2ncnc(NS(=O)(=O)c3cc4ccccc4s3)c2cc1OC when tested on MDA-MB-231 breast reads > 100 µM

Response field TGI (MDA-MB-231 breast) for item O=c1c(NCc2ccccc2)c(C2(c3ccccc3F)SCCCS2)c1=O : > 100 µM

Summary: COc1cc(/C=C/C(=O)c2c(C)n([O-])c3ccccc3[n+]2=O)cc(OC)c1OC , MDA-MB-231 breast, TGI = 22.4 µM

Record Cc1cn(S(=O)(=O)c2ccccc2)c2c(OCc3ccccc3)cc([N+](=O)[O-])cc12 has MDA-MB-231 breast TGI equal to > 100 µM

Bench note, MDA-MB-231 breast: entry O=NNc1ccc(-c2ccccc2)cn1 , its TGI = > 78.1 µM

Observed TGI on MDA-MB-231 breast, entry O=CNC(Cc1cnc[nH]1)C(=O)O (configuration not stated) , equals > 100 µM

MDA-MB-231 breast data for O=C1/C(=C/c2ccc(F)cc2)COc2ccc(O)c(O)c21 ; its TGI: 6.25 µM

Measured TGI for this entry O=C(CC(C(=O)c1ccsc1)c1cccs1)c1ccccc1 (configuration not stated) on MDA-MB-231 breast: > 100 µM

Log: MDA-MB-231 breast, molecule CN1CCN(C2=C(Cl)C(=O)c3ccccc3C2=O)CC1 , TGI = 3.99 µM

Response field TGI (MDA-MB-231 breast) for item O=C(O)/C=C/c1c2ccc(=O)c(O)c-2oc2c(O)c(O)ccc12 : 66.5 µM

The measured TGI that COc1ccc(/C=C\c2cc(OC)c(OC)c(OC)c2)cc1NC(=O)/C=C/c1ccc(OC)c(OC)c1 showed for MDA-MB-231 breast is > 100 µM

Item: C[C@H]1C[C@@H](n2c(Nc3ccc(OC(F)(F)F)cc3)nc3cc(CCC(=O)O)ccc32)CC(C)(C)C1 | System: MDA-MB-231 breast | TGI: 32.9 µM

Case O=C(Nc1cc(Cl)c(I)c(Cl)c1)C(F)(F)F , MDA-MB-231 breast, TGI recorded as > 100 µM

The molecule O=[N+]([O-])c1ccccc1/C=N\NC(=S)N/N=C/c1ccccc1[N+](=O)[O-] , tested on MDA-MB-231 breast, showed TGI of > 100 µM

The molecule CCN(Cc1cc(Cl)cc(C)c1O)Cc1c(O)ccc2ccccc12 on MDA-MB-231 breast: TGI was 35.4 µM

MDA-MB-231 breast assay, molecule Cc1[nH]n(-c2nc(-c3ccccc3)cc(=O)[nH]2)c(=O)c1CCO , recorded TGI = > 100 µM

Entry O=C(NC(=S)Nc1ccc(Br)cc1)c1ccc2c(c1)Sc1ccccc1O2 under MDA-MB-231 breast had TGI of > 100 µM

Test item O=C1c2ccccc2C(=O)c2c1ccc1conc21 ; MDA-MB-231 breast; reported TGI was 1.42 µM

// assay MDA-MB-231 breast, entry O=[N+]([O-])c1ccc(Sc2cccc[n+]2[O-])c2nonc12 , TGI value = 16 µM

Value (TGI, MDA-MB-231 breast) for record O=C(N/N=C\c1ccc(Cl)cc1)Nc1ccc2ccccc2c1 = > 100 µM

Assay MDA-MB-231 breast, sample COP(=O)(OC)C(N)Cc1c[nH]c2ccccc12 (configuration not stated) , TGI read: > 100 µM

TGI value, target or system MDA-MB-231 breast, for CCOP(=O)(OCC)C(c1ccc(F)cc1)N(C(=O)NC(F)(F)F)c1ccc(F)cc1 (configuration not stated) : > 100 µM

###

Test system: SW-620 colon
METHOD SUMMARY: NCI tumour cell line growth inhibition, 48 h
MEASUREMENT KIND: TGI

For O=c1[nH]c2nc3ccccc3c(=O)n2nc1Cc1ccccc1 the compound record lists TGI as > 100 µM

The recorded TGI for CC(C)(C)OC(=O)NCCCCCCCCCn1c2c(c3ccccc3c1=O)C(=O)c1ccccc1-2 is > 100 µM

Lookup result for CN1C/C(=C\c2cccs2)C2=NN(c3ccccc3)C(c3cccs3)C2C1 (centres undefined) ; measured TGI: > 100 µM

Entry COc1ccc(C2=C(OC(C)=O)c3cccn3-c3ccc(Cl)cc3S2)cc1 — recorded TGI = > 10 µM

CC(C)(C)C1=CC(=N/N=c2\scc(-c3ccccc3)n2Cc2ccccc2)C=C(C(C)(C)C)C1=O yielded TGI of > 100 µM

For this compound ( CC(C)(C)c1cc(C2c3cc4c(cc3OC(O)(CO)C2C(=O)O)OCO4)cc(C(C)(C)C)c1O (centres undefined) (tested in a mixture with another compound) ), measured TGI is 33.4 µM

Lookup result for COc1ccc2[nH]c3ccc4cc[n+](CCN5CCC(C6CCN(CC[n+]7ccc8ccc9[nH]c%10ccc(OC)cc%10c9c8c7)CC6)CC5)cc4c3c2c1 ; measured TGI: > 36.9 µM

Reported TGI for COC(=O)CNC(=O)C(=O)c1c(O)c(O)c(C(C)C)c2cc(C)c(-c3c(C)cc4c(C(C)C)c(O)c(O)c(C(=O)C(=O)NCC(=O)OC)c4c3O)c(O)c12 was 6.94 µM

Notebook: Cc1ccc([N+](=O)[O-])cc1S(=O)(=O)Nc1ccc(C2=NN(S(=O)(=O)c3cc([N+](=O)[O-])ccc3C)C(c3cccs3)C2)cc1 (centres undefined) , TGI read as > 100 µM

The reported TGI of the compound COc1ccc(C2=Nn3c(nnc3-c3ccc(F)c(Cl)c3)SC2)cc1 was > 100 µM

Lab book: TGI of CN(C)S(=O)(=O)c1cccc(C(=O)Nc2nc(-c3ccc(F)c(F)c3)cs2)c1 noted as > 100 µM

Quick note, TGI for COc1ccc2[nH]c3c(C)c4c(c(C)c3c2c1)CN(C)C=C4 landed at 18.3 µM

Reported TGI of Cc1c(C)c2cc3c(=O)c(CCl)coc3c(C)c2oc1=O : > 100 µM

The compound identified as O=C(O)CCCN1C(=O)/C(=C/C(Cl)=C/c2ccccc2)SC1=S registered its TGI at 3.86 µM

The compound listed as Nc1[nH]nc(Nc2ccccc2)c1-c1nc2ccccc2s1 has a reported TGI of 7.29 µM

Record COc1c(C(=O)/C(=N/Nc2ccc(C(=O)O)cc2)C(C)=O)c(O)cc2occc12 , field TGI: > 100 µM

For record Cc1nc(-n2nc(-c3ccccc3)cc2-c2ccccc2)sc1C(=O)CC(=O)C(=O)Nc1ccc(Cl)c(Cl)c1 the listed TGI is > 100 µM

Consider O=C1OC(c2ccc([N+](=O)[O-])cc2)=N/C1=C\c1ccc(Cl)cc1 . Its measured TGI is > 100 µM

Memo: O=CNC(Cc1cnc[nH]1)C(=O)O (centres undefined) , reported TGI: > 100 µM

Noted for COc1ccc(-c2nc(NC(=O)CS(=O)(=O)c3ccc(F)cc3)sc2C)cc1 : its TGI reads > 100 µM

The compound CCN(Cc1ccc(Cl)c(Cl)c1)c1ccc2nc(N)nc(N)c2c1C showed TGI equal to 1.6 µM

Entry Cc1nc2c(Cl)cc(Cl)cc2c2c1CCO2 ; TGI = > 100 µM

TGI in this record for CN(C)N1C(=O)C(=O)N(c2cccc3ccccc23)C1=O : > 10 µM

Measured TGI of Cc1cccc2c(=O)c3cccc([C@H](C)C(=O)O)c3oc12 : > 100 µM

C=CC[P@]1(=O)O[C@H](c2ccccc2)C(C)N1C(C)C (some centres undefined) has a reported TGI of > 100 µM

Reported TGI of O=C1OC(C(O)CO)C(C(O)CO)OC1=O (centres undefined) : > 10 µM

The reported value for CCN(CC)CCC(=O)/C=C/c1ccc(Cl)c(Cl)c1 in terms of TGI is 5.63 µM

Record Cc1cc(NC(=O)NCCOc2ccc(N3C(N)=NC(N)=NC3(C)C)cc2Cl)ccc1S(=O)(=O)F , field TGI: > 100 µM

The reported value for O=C(c1ccc(Cl)cc1Cl)N1CCN(C(=O)c2ccc(Cl)cc2Cl)C1=S in terms of TGI is 98.2 µM
